biological target: PCP receptor; assay: PCP receptor affinity of IDDC analogs vs. [3H]MK-801 in rat brain membrane (Example 10, Table 2); details: read-out: PCP Receptor Affinity IC50 in Rat Brain Membrane vs. [3H]MK-801, MEAN
Lab note: class by IC50, see range A = under 70 nM, range B = from 70 nM up to 200 nM, range C = 200 nM and over

• COc1ccc2c(c1)C1CNC(C2)c2ccccc21 (racemic) [(±)-3-OMe-IDDC] = range B
• Ic1ccc2c(c1)C1CNC(C2)c2ccccc21 (racemic) [(±)-3-Iodo-IDDC] = range B
• c1ccc2c(c1)CC1NCC2c2ccccc21 (racemic) [(±)-IDDC] = range B
• Clc1ccc2c(c1)C1CNC(C2)c2ccccc21 (racemic) [(±)-3-Cl-IDDC] = range A
• Clc1ccc2c(c1)C1CNC(C2)c2ccccc21 (single isomer, unassigned; (+)) [(+)-3-Chloro-IDDC] = range A
• COc1ccc2c(c1)C1CNC2Cc2ccccc21 (racemic) [(±)-7-OMe-IDDC] = range C
• Fc1ccc2c(c1)C1CNC(C2)c2ccccc21 (racemic) [(±)-3-F-IDDC] = range A
• Clc1ccc2c(c1)C1CNC2Cc2ccccc21 (racemic) [(±)-7-Cl-IDDC] = range C
• Clc1ccc2c(c1)C1CNC(C2)c2ccccc21 (single isomer, unassigned; (-)) [(-)-3-Chloro-IDDC] = range B
• Brc1ccc2c(c1)C1CNC(C2)c2ccccc21 (racemic) [(±)-3-Br-IDDC] = range A
• c1ccc2c(c1)C[C@H]1NC[C@@H]2c2ccccc21 [(+)-IDDC] = range A
• COc1ccc2c(c1)C1CN(C)C2Cc2ccc(Br)cc21 (racemic) [(±)-3-Br-7-OMe--N--Me-IDDC] = range C
• Nc1ccc2c(c1)C1CNC(C2)c2ccccc21 (racemic) [(±)-3-NH2-IDDC] = range C
• CN1CC2c3cc(Br)ccc3CC1c1ccccc12 (racemic) [(±)-3-Br--N--Me-IDDC] = range C
• CN1C[C@H]2c3ccccc3C[C@@H]1c1ccccc12 [(+)-N--Me-IDDC] = range A
• Fc1ccc2c(c1)C1CNC(C2)c2ccccc21 (single isomer, unassigned; (+)) [(+)-3-Fluoro-IDDC] = range A
• COc1ccc2c(c1)C1CNC2Cc2ccc(Br)cc21 (racemic) [(±)-3-Br-7-OMe-IDDC] = range B
• CC12CNC(Cc3ccccc31)c1ccccc12 (racemic) [(±)-5-Me-IDDC] = range B
• COc1ccc2c(c1)C1CNC2Cc2ccc(Cl)cc21 (racemic) [(±)-3-Cl-7-OMe-IDDC] = range B
